# Subject of test: Protein kinase C beta type (Homo sapiens) (UniProt P05771)
# Sequence (P05771 2-671 limits assumed): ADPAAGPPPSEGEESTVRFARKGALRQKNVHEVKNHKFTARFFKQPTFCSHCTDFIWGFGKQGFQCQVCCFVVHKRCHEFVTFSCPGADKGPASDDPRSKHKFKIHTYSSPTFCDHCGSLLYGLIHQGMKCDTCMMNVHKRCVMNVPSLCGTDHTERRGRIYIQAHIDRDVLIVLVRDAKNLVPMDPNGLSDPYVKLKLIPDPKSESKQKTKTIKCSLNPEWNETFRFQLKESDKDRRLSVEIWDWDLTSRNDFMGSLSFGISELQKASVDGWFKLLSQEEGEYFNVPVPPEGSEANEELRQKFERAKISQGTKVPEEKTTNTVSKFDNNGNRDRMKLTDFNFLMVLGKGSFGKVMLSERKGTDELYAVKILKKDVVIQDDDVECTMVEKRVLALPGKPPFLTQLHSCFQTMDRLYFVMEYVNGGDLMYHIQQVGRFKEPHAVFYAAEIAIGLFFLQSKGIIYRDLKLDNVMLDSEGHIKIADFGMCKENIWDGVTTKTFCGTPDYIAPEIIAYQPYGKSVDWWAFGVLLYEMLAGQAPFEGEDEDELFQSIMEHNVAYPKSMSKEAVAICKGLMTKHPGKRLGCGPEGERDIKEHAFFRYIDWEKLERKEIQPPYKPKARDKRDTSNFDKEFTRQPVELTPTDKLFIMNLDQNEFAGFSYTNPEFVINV
# Applied conditions: at 1 µM
Property: residual activity; scope: individual compounds

structure_notation=N#Cc1cnc2cnc(NCc3cccnc3)cc2c1Nc1ccc(F)c(Cl)c1 subject_of_test="Protein kinase C beta type (Homo sapiens) (UniProt P05771)" measured=18%

Lookup: I am curious: what residual activity value has been reported for COc1ccc(OC)c2c(=S)c3ccccc3[nH]c12 ?
Found: 89%

Lookup: How about this compound: CC(C)n1cnc2/c(=N/c3cccc(Cl)c3)nc(NCCO)[nH]c21
Found: 104%

* * *

Property: residual activity; scope: individual molecules
# Subject of test: Activated CDC42 kinase 1 (Homo sapiens) (UniProt Q07912)
# Sequence (Q07912 whole entry, looked up): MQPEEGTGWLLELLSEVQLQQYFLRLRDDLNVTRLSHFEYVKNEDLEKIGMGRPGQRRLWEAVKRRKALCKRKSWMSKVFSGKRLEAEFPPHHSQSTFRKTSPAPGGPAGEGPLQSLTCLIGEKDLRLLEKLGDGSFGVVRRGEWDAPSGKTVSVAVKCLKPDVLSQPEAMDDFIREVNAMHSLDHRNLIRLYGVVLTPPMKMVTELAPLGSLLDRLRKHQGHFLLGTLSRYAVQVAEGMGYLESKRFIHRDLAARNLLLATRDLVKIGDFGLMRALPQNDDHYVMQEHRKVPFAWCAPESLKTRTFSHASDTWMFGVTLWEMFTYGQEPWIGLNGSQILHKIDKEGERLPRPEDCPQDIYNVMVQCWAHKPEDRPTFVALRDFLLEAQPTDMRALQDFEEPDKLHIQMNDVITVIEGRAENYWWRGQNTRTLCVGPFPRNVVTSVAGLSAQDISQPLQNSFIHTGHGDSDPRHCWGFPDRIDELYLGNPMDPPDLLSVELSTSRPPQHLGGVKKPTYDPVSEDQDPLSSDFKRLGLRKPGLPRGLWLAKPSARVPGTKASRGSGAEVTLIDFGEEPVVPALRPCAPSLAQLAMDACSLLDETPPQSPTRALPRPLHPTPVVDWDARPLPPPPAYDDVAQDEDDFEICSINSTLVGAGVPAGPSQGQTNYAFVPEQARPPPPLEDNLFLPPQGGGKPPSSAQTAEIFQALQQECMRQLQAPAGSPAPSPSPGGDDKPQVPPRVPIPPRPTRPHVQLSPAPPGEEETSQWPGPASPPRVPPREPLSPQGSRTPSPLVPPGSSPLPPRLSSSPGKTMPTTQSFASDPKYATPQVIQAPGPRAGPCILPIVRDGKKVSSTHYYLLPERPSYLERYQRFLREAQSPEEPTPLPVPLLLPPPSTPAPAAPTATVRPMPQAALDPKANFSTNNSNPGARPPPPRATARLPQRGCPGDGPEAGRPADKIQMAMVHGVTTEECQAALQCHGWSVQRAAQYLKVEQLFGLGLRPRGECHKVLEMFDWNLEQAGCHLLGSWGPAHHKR
# Applied conditions: at 1 µM
# number only, unit % dropped from output

Lookup: Observed residual activity on Activated CDC42 kinase 1 (Homo sapiens) (UniProt Q07912) for N#CCCc1ccc2c(c1)-c1[nH]c3ccc([N+](=O)[O-])cc3c1CC(=O)N2 , please.
Found: 32

Lookup: How about this molecule: CC(C)n1cnc2c(NCc3ccccc3)nc(NCCCO)nc21
Found: 76

Lookup: How about this molecule: O=C1NC(=O)c2cc(Nc3ccc(F)cc3)c(Nc3ccc(F)cc3)cc21
Found: 79

Lookup: How about this molecule: COc1ccc(OC)c2c(=S)c3ccccc3[nH]c12
Found: 83

Lookup: How about this molecule: Cn1cnc2cc3c(Nc4cccc(Br)c4)ncnc3cc21
Found: 66

* * *

# Subject of test: Tyrosine-protein kinase Fgr (Homo sapiens) (UniProt P09769)
# Sequence (P09769 2-529 limits assumed): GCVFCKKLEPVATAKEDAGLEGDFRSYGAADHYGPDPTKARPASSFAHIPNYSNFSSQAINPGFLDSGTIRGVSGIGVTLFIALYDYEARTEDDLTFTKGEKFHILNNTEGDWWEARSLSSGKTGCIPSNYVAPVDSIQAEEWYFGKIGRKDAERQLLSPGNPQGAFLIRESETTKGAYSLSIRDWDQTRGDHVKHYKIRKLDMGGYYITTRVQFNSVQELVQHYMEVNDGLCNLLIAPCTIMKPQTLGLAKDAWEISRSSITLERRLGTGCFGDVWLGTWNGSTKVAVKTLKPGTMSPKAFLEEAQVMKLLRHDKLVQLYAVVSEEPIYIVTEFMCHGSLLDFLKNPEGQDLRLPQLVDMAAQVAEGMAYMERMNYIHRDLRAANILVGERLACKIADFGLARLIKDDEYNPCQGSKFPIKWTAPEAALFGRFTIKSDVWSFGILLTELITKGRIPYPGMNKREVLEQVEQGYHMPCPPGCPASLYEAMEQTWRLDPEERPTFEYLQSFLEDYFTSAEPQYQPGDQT
# Applied conditions: at 1 µM
Test readout: residual activity

Example entries begin here.
structure_notation=Nc1ccc2ncnc(NCCc3ccc(Oc4ccccc4)cc3)c2c1 measured=84%
structure_notation=O=Nc1c(-c2c(O)[nH]c3ccccc23)[nH]c2ccccc12 measured=8%
structure_notation=COc1ccc(C(=O)Nc2sc3c(c2C(N)=O)CCCC3)cc1OC measured=110%

Lookup: I am curious: what residual activity value has been reported for O=C(Nc1cccc(Nc2cc(Nc3cccc(C(F)(F)F)c3)ncn2)c1)C1CC1 ?
Found: 90%

Lookup: How about this compound: CO[C@H]1C[C@@H]2CC[C@@H](C)[C@@](O)(O2)C(=O)C(=O)N2CCCC[C@H]2C(=O)O[C@H]([C@H](C)C[C@@H]2CC[C@@H](O)[C@H](OC)C2)CC(=O)[C@H](C)/C=C(\C)[C@@H](O)[C@@H](OC)C(=O)[C@H](C)C[C@H](C)/C=C/C=C/C=C/1C
Found: 98%

* * *

# Subject of test: Ephrin type-A receptor 4 (Homo sapiens)
# Applied conditions: at 10 µM
Test readout: residual activity (%)
# number only, unit % dropped from output

Example entries begin here.
structure_notation=Nc1cccc(-c2cc3c(Oc4cccc(O)c4)ncnc3[nH]2)c1 test_readout="residual activity" unit_of_measure=% measured=4
structure_notation=c1ccc2c(-c3ccncc3)c[nH]c2c1 test_readout="residual activity" unit_of_measure=% measured=98

Lookup: I am curious: what residual activity value has been reported for COc1ccc(CNc2nc(N(CCO)CCO)nc3c2ncn3C(C)C)cc1 ?
Found: 110

Lookup: How about this compound: CO[C@H]1C[C@@H]2CC[C@@H](C)[C@@](O)(O2)C(=O)C(=O)N2CCCC[C@H]2C(=O)O[C@H]([C@H](C)C[C@@H]2CC[C@@H](O)[C@H](OC)C2)CC(=O)[C@H](C)/C=C(\C)[C@@H](O)[C@@H](OC)C(=O)[C@H](C)C[C@H](C)/C=C/C=C/C=C/1C
Found: 100

Lookup: How about this compound: COc1cc2ncnc(Nc3ccc(NC(=O)c4ccccc4)cc3)c2cc1OC
Found: 102

Lookup: How about this compound: N#C/C(=C(\N)Sc1ccc(N)cc1)c1ccccc1C(F)(F)F
Found: 112

Lookup: How about this compound: COc1ccc(C(=O)Nc2sc3c(c2C(N)=O)CCCC3)cc1OC
Found: 95

Lookup: How about this compound: O=c1c2ccccc2[nH]c(=S)n1CCN1CCC(=C(c2ccc(F)cc2)c2ccc(F)cc2)CC1
Found: 100

Lookup: How about this compound: CC(C)n1cnc2c(NCc3ccccc3)nc(NCCCO)nc21
Found: 104

* * *

Property: residual activity; scope: individual molecules
# Subject of test: CDK6/cyclin D3 (Homo sapiens) (UniProt P30281+Q00534)
# Applied conditions: at 1 µM
# Description: Millipore: Percentage of residual kinase activity of CDK6 at 1uM relative to control. Control inhibitor: Phosphoric acid* at 0.3uM. Buffer: 8 mM MOPS pH 7.0, 0.2 mM EDTA
# number only, unit % dropped from output

structure_notation=Oc1ccc(Nc2nc(-c3ccc(Cl)cc3)cs2)cc1 measured=112
structure_notation=COc1ccc(S(=O)(=O)N(CCO)c2ccccc2CN(C)C/C=C/c2ccc(Cl)cc2)cc1 measured=97
structure_notation=CCN(CC)CCCCN1c2ccccc2Oc2ccc(Cl)cc21 measured=108
structure_notation=COc1cc2ncnc(N3CCN(C(=O)Nc4ccc(Oc5ccccc5)cc4)CC3)c2cc1OC measured=82
structure_notation=CC(C)n1cnc2/c(=N/c3cccc(Cl)c3)nc(NCCO)[nH]c21 measured=92
structure_notation=O=Nc1c(-c2c(O)[nH]c3ccccc23)[nH]c2ccccc12 measured=16
structure_notation=Oc1n[nH]c2nnc(-c3c(-c4ccccc4)nn4ccccc34)cc12 measured=89
structure_notation=Cn1cc(/C=C2\C(=O)Nc3ccc(S(N)(=O)=O)cc32)c2ccccc21 measured=93

Lookup: I am curious: what residual activity value has been reported for Cc1cc(Nc2nc(-c3ccccc3)nc3ccccc23)n[nH]1 ?
Found: 53

Lookup: How about this molecule: N#CCCc1ccc2c(c1)-c1[nH]c3ccc([N+](=O)[O-])cc3c1CC(=O)N2
Found: 30

Lookup: How about this molecule: COc1cc2ncnc(Nc3ccc(NC(=O)c4ccccc4)cc3)c2cc1OC
Found: 111

Lookup: How about this molecule: c1ccc2c(-c3ccncc3)c[nH]c2c1
Found: 85

Lookup: How about this molecule: O=C(Nc1cccc(Nc2cc(Nc3cccc(C(F)(F)F)c3)ncn2)c1)C1CC1
Found: 94

Lookup: How about this molecule: Cc1nc(-c2ccccc2)c(-c2ccncc2)o1
Found: 110

Lookup: How about this molecule: O=C1c2ccccc2-[n+]2ccc3c([nH]c4ccccc43)c21
Found: 87

Lookup: How about this molecule: O=C1NC(=O)c2cc(Nc3ccc(F)cc3)c(Nc3ccc(F)cc3)cc21
Found: 98

* * *

# Subject of test: Activated CDC42 kinase 1 (Homo sapiens) (UniProt Q07912)
# Applied conditions: at 10 µM
Property: residual activity; scope: individual compounds
# number only, unit % dropped from output

structure_notation=N#Cc1cnc2cnc(NCc3cccnc3)cc2c1Nc1ccc(F)c(Cl)c1 test_readout="residual activity" unit_of_measure=% measured=1

Lookup: I am curious: what residual activity value has been reported for CCOc1cc2ncnc(Nc3cccc(Br)c3)c2cc1OCC ?
Found: 5

Lookup: How about this compound: O=C(Nc1cccc(Nc2cc(Nc3cccc(C(F)(F)F)c3)ncn2)c1)C1CC1
Found: 26

Lookup: How about this compound: Cc1cc2ncc(-c3ccccc3)nc2cc1C
Found: 59

Lookup: How about this compound: CO[C@H]1C[C@@H]2CC[C@@H](C)[C@@](O)(O2)C(=O)C(=O)N2CCCC[C@H]2C(=O)O[C@H]([C@H](C)C[C@@H]2CC[C@@H](O)[C@H](OC)C2)CC(=O)[C@H](C)/C=C(\C)[C@@H](O)[C@@H](OC)C(=O)[C@H](C)C[C@H](C)/C=C/C=C/C=C/1C
Found: 63

* * *

# Subject of test: Cyclin-dependent kinase 2/cyclin A (Homo sapiens) (UniProt P24941+P20248+P78396)
# Applied conditions: at 1 µM
Property: residual activity; scope: individual compounds
# number only, unit % dropped from output

structure_notation=Cn1cnc2cc3c(Nc4cccc(Br)c4)ncnc3cc21 subject_of_test="Cyclin-dependent kinase 2/cyclin A (Homo sapiens) (UniProt P24941+P20248+P78396)" test_readout="residual activity" measured=132

Lookup: I am curious: what residual activity value has been reported for N#C/C(=C(\N)Sc1ccc(N)cc1)c1ccccc1C(F)(F)F ?
Found: 86

Lookup: How about this compound: Oc1c2ccccc2c2c3c(cccc13)N=N2
Found: 59

Lookup: How about this compound: O=Nc1c(-c2c(O)[nH]c3ccccc23)[nH]c2ccccc12
Found: 19

Lookup: How about this compound: Cn1cc(/C=C2\C(=O)Nc3ccc(S(N)(=O)=O)cc32)c2ccccc21
Found: 68

* * *

# Subject of test: Ephrin type-B receptor 2 (Homo sapiens) (UniProt P29323)
# Sequence (whole entry): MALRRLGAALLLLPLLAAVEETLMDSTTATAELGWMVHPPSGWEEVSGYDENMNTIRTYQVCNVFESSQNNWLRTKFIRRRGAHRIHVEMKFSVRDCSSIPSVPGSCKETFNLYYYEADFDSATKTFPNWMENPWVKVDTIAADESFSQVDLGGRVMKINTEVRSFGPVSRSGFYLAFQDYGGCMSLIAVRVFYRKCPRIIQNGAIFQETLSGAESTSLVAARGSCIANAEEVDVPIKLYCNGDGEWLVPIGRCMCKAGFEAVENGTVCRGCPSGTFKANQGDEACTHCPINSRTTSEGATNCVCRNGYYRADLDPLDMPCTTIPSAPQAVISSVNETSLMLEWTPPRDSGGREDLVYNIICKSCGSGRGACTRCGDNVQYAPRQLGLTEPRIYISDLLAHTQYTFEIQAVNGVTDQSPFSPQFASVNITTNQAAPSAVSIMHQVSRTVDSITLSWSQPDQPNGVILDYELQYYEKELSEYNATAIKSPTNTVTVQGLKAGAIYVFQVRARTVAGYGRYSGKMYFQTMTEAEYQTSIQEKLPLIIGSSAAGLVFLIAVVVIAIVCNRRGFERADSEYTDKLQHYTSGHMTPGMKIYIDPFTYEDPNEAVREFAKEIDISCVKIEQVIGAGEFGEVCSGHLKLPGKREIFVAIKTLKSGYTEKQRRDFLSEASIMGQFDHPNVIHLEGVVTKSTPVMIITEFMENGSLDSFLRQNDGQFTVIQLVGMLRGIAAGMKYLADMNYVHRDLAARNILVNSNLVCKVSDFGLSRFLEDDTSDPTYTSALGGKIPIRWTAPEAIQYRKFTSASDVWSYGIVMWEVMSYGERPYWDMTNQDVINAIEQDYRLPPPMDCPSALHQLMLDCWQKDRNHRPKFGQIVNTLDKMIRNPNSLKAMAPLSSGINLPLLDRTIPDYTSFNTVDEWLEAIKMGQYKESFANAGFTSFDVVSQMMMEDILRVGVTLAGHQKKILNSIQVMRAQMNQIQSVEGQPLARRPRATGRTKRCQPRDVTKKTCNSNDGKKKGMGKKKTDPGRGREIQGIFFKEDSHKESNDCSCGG
# Applied conditions: at 1 µM
Test readout: residual activity (%)
# number only, unit % dropped from output

Example entries begin here.
structure_notation=CO[C@@H]1[C@H](N(C)C(=O)c2ccccc2)C[C@H]2O[C@]1(C)n1c3ccccc3c3c4c(c5c6ccccc6n2c5c31)C(=O)NC4 subject_of_test="Ephrin type-B receptor 2 (Homo sapiens) (UniProt P29323)" test_readout="residual activity" unit_of_measure=% measured=111
structure_notation=O=Nc1c(-c2c(O)[nH]c3ccccc23)[nH]c2ccccc12 subject_of_test="Ephrin type-B receptor 2 (Homo sapiens) (UniProt P29323)" test_readout="residual activity" unit_of_measure=% measured=91
structure_notation=Cc1ccc(NC2=CC(=O)c3sc(C)nc3C2=O)cc1 subject_of_test="Ephrin type-B receptor 2 (Homo sapiens) (UniProt P29323)" test_readout="residual activity" unit_of_measure=% measured=123
structure_notation=COc1ccc(C(=O)Nc2sc3c(c2C(N)=O)CCCC3)cc1OC subject_of_test="Ephrin type-B receptor 2 (Homo sapiens) (UniProt P29323)" test_readout="residual activity" unit_of_measure=% measured=122
structure_notation=Oc1n[nH]c2nnc(-c3c(-c4ccccc4)nn4ccccc34)cc12 subject_of_test="Ephrin type-B receptor 2 (Homo sapiens) (UniProt P29323)" test_readout="residual activity" unit_of_measure=% measured=123

Lookup: Observed residual activity on Ephrin type-B receptor 2 (Homo sapiens) (UniProt P29323) for COc1cccc(-c2cc(=O)c3ccccc3o2)c1N , please.
Found: 118

Lookup: How about this molecule: Oc1c2ccccc2c2c3c(cccc13)N=N2
Found: 101
